Target: PERK (Homo sapiens, UniProt Q9NZJ5)
Sequence (Q9NZJ5 30-1116): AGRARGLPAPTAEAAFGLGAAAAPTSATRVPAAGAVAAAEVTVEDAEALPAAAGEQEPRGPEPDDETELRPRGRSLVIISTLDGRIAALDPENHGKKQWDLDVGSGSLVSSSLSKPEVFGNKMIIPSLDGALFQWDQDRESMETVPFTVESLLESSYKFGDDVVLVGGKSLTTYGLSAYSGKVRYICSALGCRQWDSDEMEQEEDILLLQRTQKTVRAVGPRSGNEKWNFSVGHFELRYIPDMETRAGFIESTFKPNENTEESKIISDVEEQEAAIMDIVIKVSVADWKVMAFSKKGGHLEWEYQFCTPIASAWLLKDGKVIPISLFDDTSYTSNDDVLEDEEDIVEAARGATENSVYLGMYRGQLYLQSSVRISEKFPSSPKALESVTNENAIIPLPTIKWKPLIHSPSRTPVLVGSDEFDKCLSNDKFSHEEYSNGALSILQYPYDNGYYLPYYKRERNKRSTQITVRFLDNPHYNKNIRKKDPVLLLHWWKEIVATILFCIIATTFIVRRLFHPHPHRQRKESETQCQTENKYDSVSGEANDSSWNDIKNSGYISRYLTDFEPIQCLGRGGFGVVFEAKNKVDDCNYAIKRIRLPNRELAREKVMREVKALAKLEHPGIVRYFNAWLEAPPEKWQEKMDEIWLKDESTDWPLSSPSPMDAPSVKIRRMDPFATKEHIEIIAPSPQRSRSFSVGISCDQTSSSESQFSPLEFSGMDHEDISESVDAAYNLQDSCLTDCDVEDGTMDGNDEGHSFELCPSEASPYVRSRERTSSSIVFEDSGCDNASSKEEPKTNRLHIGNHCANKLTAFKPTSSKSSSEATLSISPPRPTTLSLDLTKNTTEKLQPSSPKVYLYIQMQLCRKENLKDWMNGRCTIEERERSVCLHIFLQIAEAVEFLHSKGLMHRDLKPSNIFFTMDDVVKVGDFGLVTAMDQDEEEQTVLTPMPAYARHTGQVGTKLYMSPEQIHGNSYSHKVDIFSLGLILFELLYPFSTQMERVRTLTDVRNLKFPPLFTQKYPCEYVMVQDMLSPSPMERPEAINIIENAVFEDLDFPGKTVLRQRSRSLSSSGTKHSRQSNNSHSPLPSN
Assay: PERK enzyme assay (HTRF)
Assay type: biochemical
Settings: PERK Enzyme (500 μM ATP) IC50; at least one experimental run; read-out: PERK Activity
pIC50: −log10 of the molar value.
Reported Endpoint: pIC50

Enquiry: Please report pIC50 for the following molecule: CN1C(=O)N(c2ccc(-c3cn(C4CC4)c4ncnc(N)c34)c(F)c2)CC1c1cc(F)ccc1F (centres unmarked) [Example 144]
Return: > 7.00

Enquiry: Please report pIC50 for the following molecule: CCN1C(=O)N(c2ccc(-c3cn(C)c4ncnc(N)c34)c(F)c2)CC1c1cc(F)cc(Cl)c1 (centres unmarked)
Return: 6.00 to 7.00

Enquiry: Please report pIC50 for the following molecule: CC(C)n1cc(-c2ccc(N3CC(c4cc(F)ccc4F)N(C)C3=O)cc2F)c2c(N)ncnc21 (single isomer, unassigned) [Example 87]
Return: 6.00 to 7.00

Enquiry: Please report pIC50 for the following molecule: COc1cccc(C2CN(c3ccc(-c4cn(C)c5ncnc(N)c45)c(F)c3)C(=O)N2C)c1 (single isomer, unassigned) [Example 103]
Return: > 7.00

Enquiry: Please report pIC50 for the following molecule: Cc1cc(N2CC(c3cc(F)cc(F)c3)N(C)C2=O)ccc1-c1cn(C2CC2)c2ncnc(N)c12 (centres unmarked)
Return: > 7.00

Enquiry: Please report pIC50 for the following molecule: CN1C(=O)N(c2ccc(-c3cn(C4CC4)c4ncnc(N)c34)c(F)c2)CC1c1ccc(F)cc1F (single isomer, unassigned) [Example 137]
Return: > 7.00

Enquiry: Please report pIC50 for the following molecule: CN1C(=O)N(c2ccc(-c3cn(C4CC4)c4ncnc(N)c34)c(F)c2)CC1c1ccc(F)cc1F (single isomer, unassigned) [Example 154]
Return: 6.00 to 7.00

Enquiry: Please report pIC50 for the following molecule: CN1C(=O)N(c2ccc(-c3cn(C4CC4)c4ncnc(N)c34)c(F)c2)CC1c1cccc(Cl)c1 (single isomer, unassigned) [Example 152]
Return: > 7.00

Enquiry: Please report pIC50 for the following molecule: Cc1nc(N)c2c(-c3ccc(N4CC(c5c(F)ccc(F)c5F)N(C)C4=O)cc3F)cn(C)c2n1 (centres unmarked) [Example 139]
Return: 6.00 to 7.00

Enquiry: Please report pIC50 for the following molecule: CCN1C(=O)N(c2ccc(-c3cn(C(C)C)c4ncnc(N)c34)c(F)c2)CC1c1cc(F)ccc1F (centres unmarked)
Return: 6.00 to 7.00

Enquiry: Please report pIC50 for the following molecule: CN1C(=O)N(c2ccc(-c3cn(C)c4ncnc(N)c34)c(F)c2)CC1c1cc(F)cc(Cl)c1 (centres unmarked) [Example 16]
Return: 6.00 to 7.00

Enquiry: Please report pIC50 for the following molecule: CC(C)n1cc(-c2ccc(N3CC(c4ccc(F)cc4F)N(C)C3=O)cc2F)c2c(N)ncnc21 (centres unmarked)
Return: 6.00 to 7.00

Enquiry: Please report pIC50 for the following molecule: CN1C(=O)N(c2ccc(-c3cn(C4CC4)c4ncnc(N)c34)c(F)c2)CC1c1ccc(Cl)cc1 (centres unmarked) [Example 167]
Return: > 7.00

Enquiry: Please report pIC50 for the following molecule: CN1C(=O)N(c2ccc(-c3cn(C)c4ncnc(N)c34)c(F)c2)CC1c1cccnc1 (centres unmarked)
Return: > 7.00
